Test: LNP average particle size and polydispersity by dynamic light scattering
Type: physicochemical
Details: Table 3, Experiments 1-13; LNP 50% ionizable lipid, 38% cholesterol, 9% DSPC, 3% PEG2K-DMG; sgRNA:mRNA 1:2
measurement.label: Z-avg (nm)
// units = nm; emit number, no label

I'd like to know its Z-avg. The compound in question is CCCCC/C=C\C/C=C\CCCCCCCC(=O)OCC(CCCCCCC(=O)OC(CCCCCC)CCCCCC)COC(=O)OCCCN(CC)CC (centres unmarked)
75

Consider the compound CCCCC/C=C\C/C=C\CCCCCCCC(=O)OCC(CCCCC(=O)OC(CCCC)CCCC)COC(=O)OCCCN(CC)CC (centres unmarked) and give its measured Z-avg.
114

Please report the recorded Z-avg for CCCCCCCCC(CCCCCCCC)OC(=O)CCCCCC(=O)OCC(CCCCCCCCC(=O)OCC(CCCC)CCCCCC)COC(=O)NCCN(CC)CC (centres unmarked) .
90

// query Z-avg value for entry CCCCC/C=C\C/C=C\CCCCCCCC(=O)OCC(COC(=O)CCCC(=O)OC(CCCCCCCC)CCCCCCCC)COC(=O)N(C)CCN(CC)CC (centres unmarked)
91

I am curious: what Z-avg value has been reported for CCCCC/C=C\C/C=C\CCCCCCCC(=O)OCC(CCCCCCC(=O)OC(CCCC)CCCC)COC(=O)OCCCN(CC)CC (centres unmarked) ?
84

Requested read-out: Z-avg. Entry: CCCCCCCCCCCC(=O)OCC(COC(=O)CCC(OCCCCCCCC)OCCCCCCCC)COC(=O)OCCCN(CC)CC (centres unmarked)
83

Recorded Z-avg for CCCCC/C=C\C/C=C\CCCCCCCC(=O)OCC(COC(=O)CCC(OCCCCCCCC)OCCCCCCCC)COC(=O)NCCN(CC)CC (centres unmarked) , please?
98

Which Z-avg is listed for CCCCCCCCOC(CCC(=O)OCC(COC(=O)NCCN(CC)CC)COC(=O)C(CCCC)CCCCCC)OCCCCCCCC (centres unmarked) ?
87

----------
Experiment: LNP average particle size and polydispersity by dynamic light scattering
Format: physicochemical
Details: Table 3, Experiments 1-13; LNP 50% ionizable lipid, 38% cholesterol, 9% DSPC, 3% PEG2K-DMG; sgRNA:mRNA 1:2
measurement.label: Z-avg
# number then unit; no other words

Need Z-avg of CCCCC/C=C\C/C=C\CCCCCCCC(=O)OCC(CCCCC(=O)OC(CCCCCC)CCCCCC)COC(=O)OCCCN(CC)CC (stereo not shown) , thanks.
74 nm

Look up Z-avg: CCCCCCC(CCCCCC)OC(=O)CCCC(=O)OCC(COC(=O)CCCC(=O)OC(CCCCCC)CCCCCC)COC(=O)NCCN(CC)CC
78 nm

If you can, please state the reported Z-avg value of CCCCCCCCC(CCCCCCCC)OC(=O)CCCC(=O)OCC(COC(=O)CCCC(=O)OC(CCCCCCCC)CCCCCCCC)COC(=O)OCCCN1CCCCC1 .
63 nm

Item CCCCC/C=C\C/C=C\CCCCCCCC(=O)OCC(CCCCC(=O)OC(CCCCCCCC)CCCCCCCC)COC(=O)OCCCN(CC)CC (stereo not shown) has what recorded Z-avg?
66 nm

Field request: Z-avg | item: CCCCC/C=C\C/C=C\CCCCCCCC(=O)OCC(COC(=O)CCCC(=O)OC(CCCCCCCC)CCCCCCCC)COC(=O)NCCN1CCCCCC1 (stereo not shown)
74 nm

May I ask what Z-avg has been recorded for CCCCCCCCC(CCCCCCCC)OC(=O)CCCC(=O)OCC(COC(=O)CCCC(=O)OC(CCCCCCCC)CCCCCCCC)COC(=O)OCCCN(C)CC ?
71 nm

Returns the measured Z-avg for the input molecule. Input: CCCCC/C=C\C/C=C\CCCCCCCC(=O)OCC(CCCCCCCCC(=O)OC(CCCCCCCC)CCCCCCCCC)COC(=O)CCC(CCCC)OC(=O)NCCN1CCCC1 (stereo not shown)
82 nm

Recorded Z-avg for CCCCCCCCC(CCCCCCCC)OC(=O)CCCCCCC(=O)OCC(COC(=O)CCCCCCC(=O)OC(CCCCCCCC)CCCCCCCC)COC(=O)OCCCN(CC)CC , please?
87 nm

Reported Z-avg for CCCCCCCCC(CCCCCCCC)OC(=O)CCCCCC(=O)OCC(COC(=O)CCCCCC(=O)OC(CCCCCCCC)CCCCCCCC)COC(=O)OCCCN(CC)CC : what is it?
86 nm

What value of Z-avg has been reported for the following molecule? CCCCC/C=C\C/C=C\CCCCCCCC(=O)OCC(CCCCCCCCC(=O)OC(CCCCCCCC)CCCCCCCCC)COC(=O)CCC(CCCC)OC(=O)NCCN(C)CC (stereo not shown)
81 nm

// lookup Z-avg for CCCCC/C=C\C/C=C\CCCCCCCC(=O)OCC(CCCCCCCCC(=O)OC(CCCCCCCC)CCCCCCCCC)COC(=O)CCC(CCCCCCCC)OC(=O)NCCN(C)CC (stereo not shown)
67 nm

Which Z-avg is listed for CCCCCCCCC(CCCCCCCC)OC(=O)CCCCCCC(=O)OCC(COC(=O)CCCCCCC(=O)OC(CCCCCCCC)CCCCCCCC)COC(=O)NCCCN(CC)CC ?
74 nm

What does the data say about its Z-avg? Entry: CCCCCCCCC(CCCCCCCC)OC(=O)CCCCCCC(COC(=O)CCCC(=O)OC(CCCCCCCC)CCCCCCCC)COC(=O)OCCCN(CC)CC (stereo not shown)
69 nm

Requested field: Z-avg. Item: CCCCCCCCOC(CCC(=O)OCC(COC(=O)CCC(OCCCCCCCC)OCCCCCCCC)COC(=O)OCCCN(CC)CC)OCCCCCCCC
80 nm

Look up Z-avg for this molecule: CCCCC/C=C\C/C=C\CCCCCCCC(=O)OCC(CCCCC(=O)OC(CCCC)CCCC)COC(=O)NCCN(CC)CC (stereo not shown)
108 nm

Entry CCCCC/C=C\C/C=C\CCCCCCCC(=O)OCC(CCCCCCCCC(=O)OCC(CCCC)CCCCCC)COC(=O)OCCCN(CC)CC (stereo not shown) : reported Z-avg = ?
74 nm

Sample CCCCC/C=C\C/C=C\CCCCCCCC(=O)OCC(CCCCCCCCC(=O)OC(CCCCCCCC)CCCCCCCC)COC(=O)OCCCN(C)CC (stereo not shown) — what was its Z-avg?
78 nm

Could you tell me which Z-avg is on file for CCCCC/C=C\C/C=C\CCCCCCCC(=O)OCC(CCCCCCCCC(=O)OC(CCCCCCCC)CCCCCCCCC)COC(=O)CCC(CCCCCCCC)OC(=O)NCCN1CCCC1 (stereo not shown) ?
72 nm

Bench note: what Z-avg did CCCCCCCCCOC(=O)CCCCCCCN(CCO)CCCCCCCC(=O)OC(CCCCCCCC)CCCCCCCC show?
77 nm

// provenance: patent US20260337153A1
